- ASSAYED TARGET: EPHB1 (UniProt P54762)
- Sequence (P54762 whole entry, looked up): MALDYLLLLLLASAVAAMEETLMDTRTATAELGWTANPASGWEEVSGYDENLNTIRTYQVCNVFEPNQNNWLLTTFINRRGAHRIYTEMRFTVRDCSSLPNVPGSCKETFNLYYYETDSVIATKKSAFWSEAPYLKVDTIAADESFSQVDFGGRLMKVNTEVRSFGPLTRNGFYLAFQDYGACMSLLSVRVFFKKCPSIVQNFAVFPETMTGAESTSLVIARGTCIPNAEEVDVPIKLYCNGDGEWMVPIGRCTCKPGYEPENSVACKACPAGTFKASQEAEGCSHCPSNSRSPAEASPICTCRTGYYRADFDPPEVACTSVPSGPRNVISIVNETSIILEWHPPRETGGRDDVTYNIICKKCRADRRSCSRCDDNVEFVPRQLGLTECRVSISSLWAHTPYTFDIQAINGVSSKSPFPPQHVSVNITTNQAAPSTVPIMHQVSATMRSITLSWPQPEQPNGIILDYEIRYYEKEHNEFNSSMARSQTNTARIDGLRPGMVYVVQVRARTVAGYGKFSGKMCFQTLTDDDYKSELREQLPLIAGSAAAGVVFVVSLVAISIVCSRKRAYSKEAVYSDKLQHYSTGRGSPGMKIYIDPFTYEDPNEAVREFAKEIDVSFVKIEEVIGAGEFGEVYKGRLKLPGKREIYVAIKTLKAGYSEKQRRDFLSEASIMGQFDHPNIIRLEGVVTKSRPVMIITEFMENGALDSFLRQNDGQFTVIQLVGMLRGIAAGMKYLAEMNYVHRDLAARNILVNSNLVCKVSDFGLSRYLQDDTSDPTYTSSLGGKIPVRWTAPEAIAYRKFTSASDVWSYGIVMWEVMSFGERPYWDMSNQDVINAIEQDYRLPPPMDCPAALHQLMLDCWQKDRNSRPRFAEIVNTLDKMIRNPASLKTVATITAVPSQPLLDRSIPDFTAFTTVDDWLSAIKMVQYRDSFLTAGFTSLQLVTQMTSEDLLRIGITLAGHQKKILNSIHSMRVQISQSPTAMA
- METHOD: phosphorylation enrichment, bacterial display (enrichment ratio); higher = better substrate or ligand; peptides without Tyr show the background;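 further: 11-residue human phosphosite peptides and single-mutation variants displayed on the E. coli surface, counted by deep sequencing, each peptide's frequency after selection divided by its frequency in the unselected input library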;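 further: frequency after pTyr selection over input frequency; kinase dosed for 20-30% of maximal phosphorylation in three min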
# phosphorylation enrichment listing for each entry below
MEASUREMENT LABEL: phosphorylation enrichment

| RESIDUE CODES | VALUE MEASURED |
| --- | --- |
| KHCEDYVCSFN [DSC1_Y846_YF] | 0.564 |
| EAVKNYTEKRG [PBRM1_Y672_D674E] | 0.318 |
| PVDVAYRHGFF [PLEC_Y2967_R2969H_YF] | 0.32 |
| SVVLPYEPPEV [TP53_Y220_V218L] | 0.686 |
| SYPHEYGSQEG [RBM10_Y48_R46H] | 0.483 |
| GFSRHYEDGFP [CTNND1_Y217_YF] | 0.432 |
| AKFPSYEKNKK [FOXL2_Y91_F90S] | 0.577 |
| LRYEVYGGENE [STOX1_Y610] | 0.765 |
| FVKEPYIQSRF [HIPK4_Y175_YF] | 0.402 |
| TVSSDYLHPQF [CCPG1_Y569_F566S_YF] | 0.823 |
| DVRQEYPGMIL [PLXND1_Y616] | 0.413 |
| ENKGVYVPMSG [IVD_Y277_L279P] | 0.411 |
| FQGGTYSKACT [FGG_Y380_S384C_YF] | 0.404 |
| DAVKHYMQFRK [CNGA2_Y395] | 0.359 |
| MKALGYFAVGT [OPA1_Y498_V502G] | 0.469 |
| YRKNTYNVKST [SYNE2_Y575_I574T] | 0.351 |
| LINPKYSVEEE [PCDH19_Y27_L25P] | 1.06 |
| RGVTHYILQTF [SLC39A4_Y359] | 0.394 |
| HIAKGYRRDNP [HARS1_Y156_V155G] | 0.363 |
| MSRDVYSTDFF [NTRK2_Y702_YF] | 0.756 |
| KDQPDYKFQPR [SOX9_Y172_H169Q_YF] | 0.348 |
| TTKAKYKTPTF [PLD2_Y573_YF] | 0.305 |
| FFCKFYNKSED [RYR1_Y4864_R4861C] | 0.712 |
| AEEKEYHAEEG [EGFR_Y869_G873E] | 0.649 |
| QADIIYVNTQL [MERTK_Y872_V870I] | 1.18 |
| EEKKKYYDAKI [CASP5_Y103_T106A] | 0.467 |
| DFFDLYGGEKK [PTPN11_Y66_F71K_YF] | 0.511 |
| FYNSEYGELSE [FLT4_Y1337] | 0.729 |
